Biological target: ACE (Oryctolagus cuniculus, UniProt P12822)
Construct: the angiotensin-I-converting enzyme from rabbit lung (2 units/mg protein); purchased Sigma Chemical Co. (St. Louis, MO, USA); host or cells: rabbit lung (tissue-derived)
Sequence (P12822 34-1310): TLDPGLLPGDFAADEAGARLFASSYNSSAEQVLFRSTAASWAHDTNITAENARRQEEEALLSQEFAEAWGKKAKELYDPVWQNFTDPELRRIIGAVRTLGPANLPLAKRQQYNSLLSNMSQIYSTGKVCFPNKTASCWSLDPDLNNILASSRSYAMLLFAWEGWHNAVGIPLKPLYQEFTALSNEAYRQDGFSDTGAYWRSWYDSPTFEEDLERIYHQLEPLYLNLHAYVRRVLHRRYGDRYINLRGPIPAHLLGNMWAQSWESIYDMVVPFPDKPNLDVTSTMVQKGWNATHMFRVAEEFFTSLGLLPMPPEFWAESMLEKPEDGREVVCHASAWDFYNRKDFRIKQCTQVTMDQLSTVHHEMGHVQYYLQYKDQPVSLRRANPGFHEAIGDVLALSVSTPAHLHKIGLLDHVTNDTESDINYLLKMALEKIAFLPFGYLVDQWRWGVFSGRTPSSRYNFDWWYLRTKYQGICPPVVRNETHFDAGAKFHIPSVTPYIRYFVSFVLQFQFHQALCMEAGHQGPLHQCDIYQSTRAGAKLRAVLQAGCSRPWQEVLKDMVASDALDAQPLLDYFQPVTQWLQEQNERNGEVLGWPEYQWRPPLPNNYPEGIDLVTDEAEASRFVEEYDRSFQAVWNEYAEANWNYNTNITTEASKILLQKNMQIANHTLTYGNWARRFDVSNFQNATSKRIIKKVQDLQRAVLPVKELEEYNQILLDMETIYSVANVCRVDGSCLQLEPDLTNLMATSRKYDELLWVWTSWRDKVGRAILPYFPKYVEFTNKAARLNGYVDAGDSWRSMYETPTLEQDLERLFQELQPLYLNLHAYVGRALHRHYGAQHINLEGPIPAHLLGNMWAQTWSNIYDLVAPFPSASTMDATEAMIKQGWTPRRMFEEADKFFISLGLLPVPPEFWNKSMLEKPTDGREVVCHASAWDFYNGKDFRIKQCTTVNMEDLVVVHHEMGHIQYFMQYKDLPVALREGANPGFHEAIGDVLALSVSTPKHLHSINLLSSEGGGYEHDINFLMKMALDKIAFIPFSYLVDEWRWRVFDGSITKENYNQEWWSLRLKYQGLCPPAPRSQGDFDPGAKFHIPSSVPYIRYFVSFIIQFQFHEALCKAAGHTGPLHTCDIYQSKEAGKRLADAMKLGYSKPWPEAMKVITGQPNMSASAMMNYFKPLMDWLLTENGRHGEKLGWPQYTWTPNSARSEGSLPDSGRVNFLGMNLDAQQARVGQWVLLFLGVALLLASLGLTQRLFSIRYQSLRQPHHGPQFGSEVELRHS
Assay: Effect of ACE on papain-generated peptides: hydrolysis of peptides by ACE followed by RP-HPLC
Type: in vitro ADME, rabbit
Conditions: rabbit, isolated ACE (angiotensin-converting enzyme) solution; incubation with ACE (100 mU/mL) 37 °C, 0.5 h; peptide 2 mM (YGIKVGYAIP), 4 mM (GGIF, GIFE); read-out: Cleavage (%)
Residues, ends and D or L forms follow the SMILES beside them.
Observed Property: metabolised at 0.5 h (%)

1. CC[C@H](C)[C@H](NC(=O)CNC(=O)CN)C(=O)N[C@@H](Cc1ccccc1)C(=O)O [GGIF] (H-GGIF-OH; N-terminus and C-terminus assumed) : 1
2. CC[C@H](C)[C@H](NC(=O)CN)C(=O)N[C@@H](Cc1ccccc1)C(=O)N[C@@H](CCC(=O)O)C(=O)O [GIFE] (H-GIFE-OH; N-terminus and C-terminus assumed) : 0
